// reported Remaining activity [%] for each item listed
biological target: VLP2 (virus-like particles, capsid protein particles of AAV serotype 2) (AAV serotype 2 (AAV2)) (UniProt P03135); assay: ELISA on immobilised VLP2 (purified protein, 5 µg/mL); A450 after 1:1 1 M NaOH with 1 mM CaCl2, 30°C, 20 min divided by A450 at 0 time
Sequence (P03135 whole entry): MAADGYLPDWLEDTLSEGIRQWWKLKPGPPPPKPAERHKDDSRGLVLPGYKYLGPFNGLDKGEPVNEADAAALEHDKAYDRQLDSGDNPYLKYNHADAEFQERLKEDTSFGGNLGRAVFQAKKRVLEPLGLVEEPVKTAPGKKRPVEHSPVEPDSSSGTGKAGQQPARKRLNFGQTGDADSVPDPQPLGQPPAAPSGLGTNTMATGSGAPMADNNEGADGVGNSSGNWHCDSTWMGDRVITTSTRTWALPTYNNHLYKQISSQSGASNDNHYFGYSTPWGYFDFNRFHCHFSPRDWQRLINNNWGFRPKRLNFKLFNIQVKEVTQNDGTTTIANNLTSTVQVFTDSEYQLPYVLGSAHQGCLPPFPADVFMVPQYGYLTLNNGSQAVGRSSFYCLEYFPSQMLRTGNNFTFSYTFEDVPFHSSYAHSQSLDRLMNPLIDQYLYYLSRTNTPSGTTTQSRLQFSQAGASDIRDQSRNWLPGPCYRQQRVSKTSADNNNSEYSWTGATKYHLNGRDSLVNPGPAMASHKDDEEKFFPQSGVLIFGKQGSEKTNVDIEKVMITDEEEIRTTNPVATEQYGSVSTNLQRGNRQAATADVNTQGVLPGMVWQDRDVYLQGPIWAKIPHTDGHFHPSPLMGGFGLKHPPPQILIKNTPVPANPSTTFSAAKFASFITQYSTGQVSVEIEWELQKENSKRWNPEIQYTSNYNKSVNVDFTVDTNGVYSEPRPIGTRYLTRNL

>  <BINDER>
AVR29b (AVR25c with G314D, I366F, V394A, K455R) (receptor) MGSADESDQITLPKHEAQLKVYVLLVPPKGEASTYDWQLITHPRDYSGEMEGEHSQFLKLSNLTPGLYEYRAVVEGQNAHSEGYANVTVEPGPRKNRPPIAIVSPQFQEISLPTTSAVIDGSQSTDDDKIVQYHWEELKGPLREERISEDTPILKLSNLVPGNYTFRLTVVDTDGATDSTTADLTVNKAVDHHHHHH

>  <Remaining activity [%] (%)>
63.7

$$$$
>  <BINDER>
AVR29d (AVR25c with I366F, V394A, K455R, V499I) (receptor) MGSAGESDQITLPKHEAQLKVYVLLVPPKGEASTYDWQLITHPRDYSGEMEGEHSQFLKLSNLTPGLYEYRAVVEGQNAHSEGYANVTVEPGPRKNRPPIAIVSPQFQEISLPTTSAVIDGSQSTDDDKIVQYHWEELKGPLREERISEDTPILKLSNLVPGNYTFRLTVVDTDGATDSTTADLTVNKAIDHHHHHH

>  <Remaining activity [%] (%)>
68.6

$$$$
>  <BINDER>
AVR29c (AVR25c with I366F, V394A, K455R, K497E) (receptor) MGSAGESDQITLPKHEAQLKVYVLLVPPKGEASTYDWQLITHPRDYSGEMEGEHSQFLKLSNLTPGLYEYRAVVEGQNAHSEGYANVTVEPGPRKNRPPIAIVSPQFQEISLPTTSAVIDGSQSTDDDKIVQYHWEELKGPLREERISEDTPILKLSNLVPGNYTFRLTVVDTDGATDSTTADLTVNEAVDHHHHHH

>  <Remaining activity [%] (%)>
93.2

$$$$
>  <BINDER>
AVR28 (AVR25c with I366F, V394A, K455R) (receptor) MGSAGESDQITLPKHEAQLKVYVLLVPPKGEASTYDWQLITHPRDYSGEMEGEHSQFLKLSNLTPGLYEYRAVVEGQNAHSEGYANVTVEPGPRKNRPPIAIVSPQFQEISLPTTSAVIDGSQSTDDDKIVQYHWEELKGPLREERISEDTPILKLSNLVPGNYTFRLTVVDTDGATDSTTADLTVNKAVDHHHHHH

>  <Remaining activity [%] (%)>
42.5

$$$$
